These measurements were taken from patent US12473291B2.

# Tested on: SD rats
# assay.protocol: animal or person
# Assay type: in vivo
# cond: SD rats, tail vein injection
quantity.name: Quality of recovery

Cc1cnc2n1-c1c(Cl)c(Cl)c(Cl)c(Cl)c1C(c1ccccn1)=N[C@H]2CCC(=O)OCOC(=O)OC(C(C)C)C(C)C [Example 31] : + (“+” means <1 min)
COC(=O)OCOC(=O)CC[C@@H]1N=C(c2ccccn2)c2cc(Br)ccc2-n2c(C)cnc21 [Example 34] : + (“+” means <1 min)
CCOC(=O)C1(OC(=O)CC[C@@H]2N=C(c3ccccn3)c3cc(F)c(C)cc3-n3c(C)cnc32)CC1 [Example 26] : ++ (“++” means 1-3 min)
CCCOC(=O)OCOC(=O)CC[C@@H]1N=C(c2ccccn2)c2cc(Br)ccc2-n2c(C)cnc21 [Example 47] : ++ (“++” means 1-3 min)
COC(=O)C1(OC(=O)CC[C@@H]2N=C(c3ccccn3)c3ccc(C(F)(F)F)c(Cl)c3-n3c(C)cnc32)CC1 [Example 41] : ++ (“++” means 1-3 min)

[Q] State, in one line, measured Quality of recovery of CCC(CC)OC(=O)OCOC(=O)CC[C@@H]1N=C(c2ccccn2)c2cc(Br)ccc2-n2c(C)cnc21 [Example 50]
[A] ++ (“++” means 1-3 min)

[Q] State, in one line, measured Quality of recovery of Cc1cnc2n1-c1cc(Br)c(Br)cc1C(c1ccccn1)=N[C@H]2CCC(=O)OC(C)OC(=O)OC(C)C (some centres unmarked) [Example 17]
[A] ++ (“++” means 1-3 min)

[Q] State, in one line, measured Quality of recovery of CC(=O)O.COC(=O)C1(OC(=O)CC[C@@H]2N=C(c3ccccn3)c3cc(Cl)c(OC(F)(F)F)cc3-n3c(C)cnc32)CC1 [Example 42]
[A] + (“+” means <1 min)
